# ASSAYED_TARGET: human orexin-1 receptor (Homo sapiens)
# Sequence (O43613 whole entry): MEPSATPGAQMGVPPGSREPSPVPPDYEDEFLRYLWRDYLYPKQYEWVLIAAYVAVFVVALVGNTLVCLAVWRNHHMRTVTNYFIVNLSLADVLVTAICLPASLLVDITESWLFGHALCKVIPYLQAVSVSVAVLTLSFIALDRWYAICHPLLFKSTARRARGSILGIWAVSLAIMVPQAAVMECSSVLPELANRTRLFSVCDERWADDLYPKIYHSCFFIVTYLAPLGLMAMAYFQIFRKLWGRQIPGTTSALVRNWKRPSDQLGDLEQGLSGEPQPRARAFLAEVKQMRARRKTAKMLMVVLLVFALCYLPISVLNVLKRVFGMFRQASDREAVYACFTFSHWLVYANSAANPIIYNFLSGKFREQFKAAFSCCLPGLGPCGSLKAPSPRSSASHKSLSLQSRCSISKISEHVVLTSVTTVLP
# ASSAY_COMMENT: Intracellular calcium measurements (FLIPR), orexin receptor antagonistic activity, OX1
# APPLIED_CONDITIONS: CHO cells expressing human orexin-1 receptor, 10 nM orexin-A as agonist
pIC50: −log10 of the molar value.
MEASURED_METRIC: pIC50

| MOLECULE | MEASURED_METRIC | NUMERIC_RESULT |
| --- | --- | --- |
| Cc1cccc(-c2sc(C)nc2C(=O)N2C[C@H]3C[C@H]3[C@H]2CNC(=O)c2ccccc2N2CCOCC2)c1 (relative stereo) | pIC50 | 6.70 |
| Cc1cccc(-c2sc(C)nc2C(=O)N2C[C@H]3C[C@H]3[C@H]2CNC(=O)c2sc(Br)nc2C)c1 (relative stereo) | pIC50 | 7.00 |
| Cc1cccc(-c2sc(C)nc2C(=O)N2C[C@H]3C[C@H]3[C@H]2CNC(=O)c2cccc(C(F)(F)F)c2)c1 (relative stereo) | pIC50 | 7.01 |
| O=C(NC[C@@H]1[C@@H]2C[C@@H]2CN1C(=O)c1cccc2c1-c1ccccc1C2)c1cccc2occc12 (relative stereo) | pIC50 | 6.62 |
| COCCOc1cccc(-c2sc(C)nc2C(=O)N2C[C@H]3C[C@H]3[C@H]2CNC(=O)c2cccc3occc23)c1 (relative stereo) | pIC50 | 6.02 |
| Cc1nc(C(=O)N2C[C@H]3C[C@H]3[C@H]2CNC(=O)c2cccc3c2OCO3)c(-c2cccc(F)c2)s1 (relative stereo) | pIC50 | 6.02 |

----------
# ASSAYED_TARGET: UniProt:O43613
# ASSAY_COMMENT: Intracellular calcium measurements (FLIPR), orexin receptor antagonistic activity, OX1
# APPLIED_CONDITIONS: CHO cells expressing human orexin-1 receptor, 10 nM orexin-A as agonist
# Procedure: The orexin receptor antagonistic activity of the compounds of formula (I) is determined in accordance with the following experimental method. Intracellular Calcium Measurements: […] Within the Fluorescent Imaging Plate Reader (FLIPR, Molecular Devices), antagonists are added to the plate in a volume of 50 μl, incubated for 20 min and finally 100 μl of agonist is added. […]
pIC50: −log10 of the molar value.

| COMPOUND | ASSAYED_TARGET | pIC50 |
| --- | --- | --- |
| Cc1cccc(-c2sc(C)nc2C(=O)N2C[C@H]3C[C@H]3[C@H]2CNC(=O)c2cccc3c2NC(=O)CO3)c1 (relative stereo) [Example 181] | UniProt:O43613 | 7.05 |
| O=C(NC[C@@H]1[C@@H]2C[C@@H]2CN1C(=O)c1ccccc1-c1ccc(Cl)cc1)c1cccc2occc12 (relative stereo) [Example 42] | UniProt:O43613 | 6.63 |
| Cc1cccc(-c2sc(C)nc2C(=O)N2C[C@H]3C[C@H]3[C@H]2CNC(=O)c2sc(C)nc2C)c1 (relative stereo) [Example 82] | UniProt:O43613 | 6.06 |
| O=C(NC[C@@H]1[C@@H]2C[C@@H]2CN1C(=O)c1nccnc1-c1ccccc1)c1cccc2occc12 (relative stereo) [Example 32] | UniProt:O43613 | 5.53 |
| Cc1cccc(-c2sc(N)nc2C(=O)N2C[C@H]3C[C@H]3[C@H]2CNC(=O)c2scc3c2OCCO3)c1 (relative stereo) [Example 284] | UniProt:O43613 | 7.48 |
| Cc1cccc(-c2sc(CCCO)nc2C(=O)N2C[C@H]3C[C@H]3[C@H]2CNC(=O)c2c(C)nc3sccn23)c1 (relative stereo) [Example 389] | UniProt:O43613 | 7.72 |

FYI, the data here is from patent US20100016401A1.
